Origin of the recorded values: patent US11566007B2

# TESTED TARGET: KRAS G12V (Homo sapiens (Human), UniProt P01116+P62937, G12V)
# Sequence (P01116-2 other isoform, or with tags, fused parts or gaps G12V): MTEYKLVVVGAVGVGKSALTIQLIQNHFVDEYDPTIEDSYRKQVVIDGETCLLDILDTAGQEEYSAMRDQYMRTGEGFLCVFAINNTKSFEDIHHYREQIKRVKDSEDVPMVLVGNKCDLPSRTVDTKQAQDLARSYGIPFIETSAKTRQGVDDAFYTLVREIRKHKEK
# Sequence (P62937 whole entry): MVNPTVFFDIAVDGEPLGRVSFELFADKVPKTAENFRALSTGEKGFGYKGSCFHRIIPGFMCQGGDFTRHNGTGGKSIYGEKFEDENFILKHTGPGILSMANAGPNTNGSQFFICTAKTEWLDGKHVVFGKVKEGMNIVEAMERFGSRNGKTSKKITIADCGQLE
# PROTOCOL DESCRIPTION: Ras-Raf (BRAF RBD) disruption / FRET / MOA assay, KRAS G12V
# Assay type: biochemical
# TEST SETTINGS: read-out: IC50* KRAS G12V FRET data

>  <MOLECULE>
CCn1c(-c2cccnc2COC)c2c3cc(ccc31)-c1cc(C)cc(c1)C[C@H](NC(=O)[C@H](C(C)C)N(C)C(=O)[C@H]1CCN(C(=O)C#CCN(C)C)C1)C(=O)N1CCC[C@H](N1)C(=O)OCC(C)(C)C2

>  <IC50>
> 10 µM

$$$$
>  <MOLECULE>
CCn1c(-c2cccnc2[C@H](C)OC)c2c3cc(ccc31)N1CCO[C@@H](C[C@H](NC(=O)[C@@H](COC3CN(C(=O)C#CC(C)(C)N(C)C)C3)C(C)C)C(=O)N3CCC[C@H](N3)C(=O)OCC(C)(C)C2)C1 (atropisomer, axis not shown)

>  <IC50>
> 10 µM

$$$$
>  <MOLECULE>
C=CC(=O)N1CC[C@H](C(=O)N(C)[C@H](C(=O)N[C@H]2Cc3cccc(c3)-c3ccc4c(c3)c(c(-c3ccccc3[C@H](C)OC)n4CC)CC(C)(C)COC(=O)[C@@H]3CCCN(N3)C2=O)C(C)C)C1 (atropisomer, axis not shown)

>  <IC50>
> 10 µM

$$$$
>  <MOLECULE>
C=CC(=O)N(C)CCN1CCN(C(=O)N(C)[C@H](C(=O)N[C@H]2Cc3cccc(c3)-c3ccc4c(c3)c(c(-c3cccnc3[C@H](C)OC)n4CC)CC(C)(C)COC(=O)[C@@H]3CCCN(N3)C2=O)C(C)C)C[C@@H]1C (atropisomer, axis not shown)

>  <IC50>
0.1 to 1 µM

$$$$
>  <MOLECULE>
CO[C@@H](C)c1ncccc1-c1c2c3cc(ccc3n1CC(F)(F)F)-c1cnc(o1)C[C@H](NC(=O)[C@H](C(C)C)N(C)C(=O)[C@H]1CCN(C(=O)C#CC(C)(C)N(C)C)C1)C(=O)N1CCC[C@H](N1)C(=O)OCC(C)(C)C2 (atropisomer, axis not shown)

>  <IC50>
1 to 10 µM

$$$$
>  <MOLECULE>
C=CC(=O)N1CC[C@H](C(=O)N(C)[C@H](C(=O)N[C@H]2Cc3cc(O)cc(c3)-c3ccc4c(c3)c(c(-c3c(C)cccc3C)n4CC)CC(C)(C)COC(=O)[C@@H]3CCCN(N3)C2=O)C(C)C)C1

>  <IC50>
1 to 10 µM

$$$$
>  <MOLECULE>
CO[C@@H](C)c1ncccc1-c1c2c3cc(ccc3n1CC(F)(F)F)N1CCO[C@@H](C[C@H](NC(=O)[C@H](C(C)C)N3CC[C@]4(CCN(C(=O)C#CC(C)(C)N(C)C)C4)C3=O)C(=O)N3CCC[C@H](N3)C(=O)OCC(C)(C)C2)C1 (atropisomer, axis not shown)

>  <IC50>
1 to 10 µM

$$$$
>  <MOLECULE>
C=CC(=O)N1CCOC2(CCN(C(=O)N(C)[C@H](C(=O)N[C@H]3C[C@H]4CN(CCO4)c4ccc5c(c4)c(c(-c4cccnc4[C@H](C)OC)n5CC)CC(C)(C)COC(=O)[C@@H]4CCCN(N4)C3=O)C(C)C)CC2)C1

>  <IC50>
0.1 to 1 µM

$$$$
>  <MOLECULE>
C=CC(=O)N1CC[C@H](C(=O)N(C)[C@H](C(=O)N[C@H]2Cc3csc(n3)-c3ccc4c(c3)c(c(-c3cccnc3[C@H](C)OC)n4CC)CC(C)(C)COC(=O)[C@@H]3CCCN(N3)C2=O)C(C)C)C1 (atropisomer, axis not shown)

>  <IC50>
1 to 10 µM

$$$$
>  <MOLECULE>
C=CC(=O)NC[C@H]1CCN1C(=O)N(C)[C@H](C(=O)N[C@H]1Cc2nc(cs2)-c2ccc3c(c2)c(c(-c2cccnc2[C@H](C)OC)n3CC)CC(C)(C)COC(=O)[C@@H]2CCCN(N2)C1=O)C(C)C (atropisomer, axis not shown)

>  <IC50>
1 to 10 µM

$$$$
>  <MOLECULE>
CCn1c(-c2cccnc2[C@H](C)OC)c2c3cc(ccc31)-c1csc(n1)C[C@H](NC(=O)[C@H](C(C)C)N(C)C(=O)N1CCC3(CC1)CN(C(=O)/C=C/CN1CCCCC1)C3)C(=O)N1CCC[C@H](N1)C(=O)OCC(C)(C)C2 (atropisomer, axis not shown)

>  <IC50>
0.1 to 1 µM

$$$$
>  <MOLECULE>
C=CC(=O)N1CC[C@]2(C1)CN(C(=O)N(C)[C@H](C(=O)N[C@H]1Cc3nc(cs3)-c3ccc4c(c3)c(c(-c3cccnc3[C@H](C)OC)n4CC)CC(C)(C)COC(=O)[C@@H]3CCCN(N3)C1=O)C(C)C)CCO2 (atropisomer, axis not shown)

>  <IC50>
0.1 to 1 µM

$$$$
>  <MOLECULE>
C=CC(=O)N1CC[C@H](C(=O)N(C)[C@H](C(=O)N[C@H]2Cc3cc(O)cc(c3)-c3ccc4c(c3)c(c(-c3cn(C)nc3[C@H](C)OC)n4CC)CC(C)(C)COC(=O)[C@@H]3CCCN(N3)C2=O)C(C)C)C1

>  <IC50>
0.1 to 1 µM

$$$$
>  <MOLECULE>
C=CC(=O)N1CCC(F)(C(=O)N(C)[C@H](C(=O)N[C@H]2Cc3cccc(c3)-c3ccc4c(c3)c(c(-c3cccnc3[C@H](C)OC)n4CC)CC(C)(C)COC(=O)[C@@H]3CCCN(N3)C2=O)C(C)C)CC1 (atropisomer, axis not shown)

>  <IC50>
0.1 to 1 µM

$$$$
>  <MOLECULE>
CO[C@@H](C)c1ncccc1-c1c2c3cc(ccc3n1CC(F)(F)F)-c1cccc(c1)C[C@H](NC(=O)[C@H](C(C)C)N1CC[C@]3(CCN(C(=O)C#CC(C)(C)N(C)C)C3)C1=O)C(=O)N1CCC[C@H](N1)C(=O)OCC(C)(C)C2 (atropisomer, axis not shown)

>  <IC50>
1 to 10 µM

$$$$
